# run_description: qHTS Assay for Spectroscopic Profiling in 4-MU Spectral Region
# condition_summary: compound autofluorescence, 340/450 nm, 4-MU equivalents
About 6,200 (11%) of roughly 59,000 compounds were called active. Not shown: some 9% with an inconclusive outcome. No stated cut-off is given here; in the data, active means max dye-equivalent concentration above about 10 nM; inconclusive means mostly about 1.1 nM to 9.6 nM; inactive means weaker than that. The sample as a whole holds a higher share of actives than the screen did.
Outcome codes: TRUE (active), FALSE (inactive)

>>> assigned_class("Cc1nc2cnc(N3CCNCC3)nc2n(Cc2ccc(F)cc2)c1=O")
"TRUE"
>>> assigned_class("CCCNS(=O)(=O)c1ccc2c(c1)CCCN2C(C)=O")
"FALSE"
>>> assigned_class("CCC1=C/C(=C\\c2ccc3c(c2)OCO3)C(=O)S1")
"FALSE"
>>> assigned_class("COc1ccccc1-c1cc(NCc2cccs2)ncn1")
"FALSE"
>>> assigned_class("CC1(C)S[C@@H]2[C@@H](NC(=O)[C@@H](N)c3ccccc3)C(=O)N2[C@H]1C(=O)O")
"TRUE"
>>> assigned_class("N#Cc1c2c(c(-c3ccccc3)[nH]c1=O)CCCC2")
"TRUE"
>>> assigned_class("CC(C)Cn1c(CCC(=O)O)ccc1-c1cccs1")
"TRUE"
>>> assigned_class("CC1(C)SC2c3ccccc3C(=O)N2[C@@H]1C(=O)NCc1ccco1 (some centres undefined)")
"FALSE"
>>> assigned_class("COC(=O)c1ccc2c(c1)S(=O)(=O)NC(=NCCCN1CCOCC1)S2")
"FALSE"

----------
# run_description: qHTS Assay for Spectroscopic Profiling in 4-MU Spectral Region
# condition_summary: compound autofluorescence, 340/450 nm, 4-MU equivalents
The whole screen tested about 59,000 compounds, of which about 6,200 (11%) were called active. Not shown: some 9% with an inconclusive outcome. No stated cut-off is given here; in the data, active means max dye-equivalent concentration above about 10 nM; inconclusive means mostly about 1.1 nM to 9.6 nM; inactive means weaker than that. Many of the other results were omitted from the sample, so actives are more common in it than they were.
Possible outcomes: active, inactive

>>> assigned_class("Cc1cn(C2C=CC(CO)O2)c(=O)[nH]c1=O (stereo not drawn)")
"inactive"
>>> assigned_class("COc1ccc(OCC(=O)OCCN(C)C)cc1")
"inactive"
>>> assigned_class("COc1ccc(OCC(=O)N2CCN(C(=O)COc3ccccc3)CC2)cc1")
"inactive"
>>> assigned_class("O=C(Nc1ccc(S(=O)(=O)N2CCCC2)cc1Cl)C1=COCCO1")
"inactive"
>>> assigned_class("O=C(NCc1ccccn1)Nc1ccc(F)cc1")
"inactive"
>>> assigned_class("O=C(CN1CCOCC1)Nc1ccc(NC(=O)CN2CCOCC2)c(Cl)c1")
"inactive"
>>> assigned_class("COc1ccc(C2CC(c3ccc(C)cc3)Nc3nc(N)nn32)cc1 (stereo not drawn)")
"active"
>>> assigned_class("Cn1nnnc1SCC(=O)N1CCN(C(c2ccccc2)c2ccccc2)CC1")
"inactive"
>>> assigned_class("COc1ccccc1-c1nc(NCc2cccs2)c2ccccc2n1")
"inactive"
>>> assigned_class("CC(C(=O)N1CCOCC1)N1c2cccc3cccc(c23)S1(=O)=O (stereo not drawn)")
"active"
>>> assigned_class("CCc1nnc(NC(=O)c2ccc(S(=O)(=O)NC3CCCCC3)cc2)s1")
"inactive"
>>> assigned_class("CC(Sc1sc(=S)sc1SC(C)C(=O)O)C(=O)O (stereo not drawn)")
"inactive"
>>> assigned_class("COc1ccc2oc(=O)c(C(=O)O)cc2c1")
"inactive"
>>> assigned_class("COc1ccc(C(=O)N/N=C2/C(=O)c3c(C)cc(C)cc3CC2(C)C)cc1")
"inactive"
>>> assigned_class("CN1CCC2(CC1)CCN(S(=O)(=O)c1ccccc1)CC2")
"inactive"
>>> assigned_class("Cc1ccsc1C(=O)OCC(=O)c1cc2ccccc2o1")
"inactive"
>>> assigned_class("COc1ccc(OCc2cccc(C(=O)N3CCCC3)c2)cc1")
"active"
>>> assigned_class("CCCCCOC(=O)C1=C(C)Nc2nnnn2C1c1ccc(OC)c(OC)c1OC (stereo not drawn)")
"inactive"
>>> assigned_class("CC(C)OC(=O)c1cc(NC(=O)C2C3CCC(O3)C2C(=O)O)cc(C(=O)OC(C)C)c1 (stereo not drawn)")
"active"
>>> assigned_class("Cc1cc(C)c2nc3c(c([C@H](O)[C@@H]4CCCCN4)c2c1)CC/C3=C/c1ccc(Cl)cc1")
"inactive"
>>> assigned_class("Cc1cc(=O)oc(C)c1C(=O)NC1CC(C)(C)NC(C)(C)C1")
"inactive"
>>> assigned_class("CCC(CC)C(=O)Nc1cccc(C(=O)N2CCCC2)c1")
"inactive"
>>> assigned_class("CC(=O)OC(C)C[N+](C)(C)C (stereo not drawn)")
"active"
>>> assigned_class("CCCCCCn1c(CN2CCCC(C)C2)nc2c1c(=O)n(C)c(=O)n2C (stereo not drawn)")
"inactive"
>>> assigned_class("CC(C)(C)OC(=O)c1c(N)n(CCCN2CCCC2=O)c2nc3ccccc3nc12")
"active"
>>> assigned_class("CCc1ccc(-c2nnn(Cc3nc4ccccc4s3)n2)cc1")
"inactive"
>>> assigned_class("CCCN1C2=C(C(=O)CCC2)C(c2ccc(O)c(Br)c2)C2=C1CCCC2=O")
"active"
>>> assigned_class("COc1ccccc1NC(=O)C1=C(C)Nc2nnnn2C1c1cccc(Br)c1 (stereo not drawn)")
"inactive"
